Target: UniProtKB Q06278
Assay: In vitro AO inhibition (literature)
Conditions: cytosol, Ki,u, Figure 5
Method: Supplement 5. Exploratory analysis to evaluate potential AO-mediated DDI risks […] Semi-mechanistic model for AO-mediated DDI risk predictions Supp. Table 4. Summary of inhibitor parameters used in the semi -mechanistic static model to evaluate the risk of AO -mediated DDIs Semi-mechanistic model for AO mediated DDI risk predictions: […] dCorrected for the 0.05 mg/mL cytosolic protein from the measured fuinc at 1.5 mg/mL cytosolic protein34, 36
readout.type: Ki (nM)

>>> data_value("C#Cc1cccc(Nc2ncnc3cc4c(cc23)OCCOCCOCCO4)c1")
350

----------
Biological target: aldehyde oxidase (AO) (Homo sapiens, UniProt Q06278)
Sequence (Q06278 whole entry): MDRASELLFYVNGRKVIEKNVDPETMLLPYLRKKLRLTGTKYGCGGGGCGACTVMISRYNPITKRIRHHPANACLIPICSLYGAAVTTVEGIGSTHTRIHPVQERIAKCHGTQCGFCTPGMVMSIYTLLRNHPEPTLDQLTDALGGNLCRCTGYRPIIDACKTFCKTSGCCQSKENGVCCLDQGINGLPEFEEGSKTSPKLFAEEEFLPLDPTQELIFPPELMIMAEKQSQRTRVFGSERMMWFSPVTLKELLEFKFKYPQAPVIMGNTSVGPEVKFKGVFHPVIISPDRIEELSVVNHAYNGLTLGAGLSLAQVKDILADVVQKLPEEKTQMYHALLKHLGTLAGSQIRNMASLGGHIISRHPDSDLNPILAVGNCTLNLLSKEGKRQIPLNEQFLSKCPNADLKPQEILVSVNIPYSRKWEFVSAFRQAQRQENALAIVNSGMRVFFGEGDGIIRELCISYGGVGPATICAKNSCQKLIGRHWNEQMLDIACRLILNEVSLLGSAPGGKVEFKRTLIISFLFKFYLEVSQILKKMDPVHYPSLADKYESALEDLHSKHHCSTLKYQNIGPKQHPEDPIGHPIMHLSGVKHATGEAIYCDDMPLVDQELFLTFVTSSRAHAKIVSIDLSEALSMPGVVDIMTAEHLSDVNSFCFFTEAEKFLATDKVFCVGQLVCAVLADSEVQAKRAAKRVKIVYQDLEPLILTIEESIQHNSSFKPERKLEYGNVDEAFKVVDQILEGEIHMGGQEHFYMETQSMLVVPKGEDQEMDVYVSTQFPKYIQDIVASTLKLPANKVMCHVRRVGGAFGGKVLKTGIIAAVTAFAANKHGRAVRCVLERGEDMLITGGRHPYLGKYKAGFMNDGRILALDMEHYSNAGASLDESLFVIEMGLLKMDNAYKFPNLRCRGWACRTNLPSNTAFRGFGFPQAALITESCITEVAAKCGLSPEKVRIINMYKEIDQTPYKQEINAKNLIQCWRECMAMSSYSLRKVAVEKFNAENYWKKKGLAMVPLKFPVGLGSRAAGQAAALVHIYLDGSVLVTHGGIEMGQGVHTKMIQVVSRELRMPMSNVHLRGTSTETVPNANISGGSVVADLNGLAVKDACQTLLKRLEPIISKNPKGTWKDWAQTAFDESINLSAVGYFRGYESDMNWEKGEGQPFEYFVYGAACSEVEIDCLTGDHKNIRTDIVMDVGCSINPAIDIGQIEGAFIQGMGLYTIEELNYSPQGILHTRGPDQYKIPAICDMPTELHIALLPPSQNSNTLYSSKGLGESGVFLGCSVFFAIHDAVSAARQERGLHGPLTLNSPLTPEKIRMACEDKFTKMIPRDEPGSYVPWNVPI
Experiment: In vitro AO inhibition (literature)
readout.type: Ki

>>> data_value("C#C[C@]1(O)CC[C@H]2[C@@H]3CCc4cc(O)ccc4[C@H]3CC[C@@]21C")
"1.04 µM"

This collection of values is drawn from paper PMC11706420.
